biological target: ALK (baculovirus expressed human ALK kinase domain F1098-K1410) (Homo sapiens); construct: human ALK kinase domain F1098-K1410; made in house; experiment: biochemical; conditions: 1 μM ATP, 4 μM poly-AEKY, 12 nM ALK, 2 hours at ambient temperature; read-out: ALK IC50
Sequence (Q9UM73 1098-1410): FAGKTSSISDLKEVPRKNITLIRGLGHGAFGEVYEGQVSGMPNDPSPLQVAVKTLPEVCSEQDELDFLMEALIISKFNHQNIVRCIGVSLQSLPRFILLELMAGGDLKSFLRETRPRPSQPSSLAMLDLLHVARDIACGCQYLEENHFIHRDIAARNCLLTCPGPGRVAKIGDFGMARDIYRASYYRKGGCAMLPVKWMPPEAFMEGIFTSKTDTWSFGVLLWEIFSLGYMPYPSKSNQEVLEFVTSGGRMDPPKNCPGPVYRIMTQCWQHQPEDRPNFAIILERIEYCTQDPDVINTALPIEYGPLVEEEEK
pIC50: −log10 of the molar value.
measurement-kind: pIC50

| compound | pIC50 |
| --- | --- |
| CC(C)c1ccc(NC(=O)NCc2nc(C(=O)NCCc3ccccc3F)cs2)cc1 [Entry 27] | > 7.30 |
| COc1cccc(CNC(=O)c2csc(CNC(=O)COc3ccc(C(C)C)cc3)n2)c1OC [Entry 125] | 6.30 to 7.30 |
| CCSCCNC(=O)c1csc(CNC(=O)COc2ccc(OC(F)(F)F)cc2)n1 [Entry 146] | 6.30 to 7.30 |
| C[C@@H](CNC(=O)c1csc(CNC(=O)COc2ccc(OC(F)(F)F)cc2)n1)c1ccccc1 [Entry 6] | > 7.30 |
| CC(C)c1ccc(OCC(=O)NCc2nc(C(=O)NCCc3cccc(Cl)c3)cs2)cc1 [Entry 72] | 6.30 to 7.30 |

Give the reported value of pIC50 for this record: O=C(NCCc1cccc(Cl)c1)c1csc(CNC(=O)c2cccnc2Oc2ccc(Cl)cc2)n1 [Entry 62]
6.30 to 7.30

Give the reported value of pIC50 for this record: CCC(CC)NC(=O)c1csc(CNC(=O)COc2ccc(OC(F)(F)F)cc2)n1 [Entry 171]
6.30 to 7.30

----------
Molecular target: ALK (baculovirus expressed human ALK kinase domain F1098-K1410) (Homo sapiens)
Construct: human ALK kinase domain F1098-K1410; made in house
Test: biochemical
Conditions: 1 μM ATP, 4 μM poly-AEKY, 12 nM ALK, 2 hours at ambient temperature; read-out: ALK IC50
Description: Kinase activity and compound inhibition are investigated using one or more of the three assay formats described below. The ATP concentrations for each assay are selected to be close to the Michaelis-Menten constant (KM) for each individual kinase. […] ALK biochemical activity was assessed using a Luciferase-Coupled Chemiluminescent Kinase assay (LCCA) format in which kinase activity was measured as the percent ATP remaining following the kinase reaction. […]
pIC50: −log10 of the molar value.
measurement-kind: pIC50

| compound | pIC50 |
| --- | --- |
| O=C(COc1ccc(OC(F)(F)F)cc1)NCc1nc(C(=O)NCc2ccc(F)c(F)c2)cs1 | 6.30 to 7.30 |

Give reported pIC50 for Cc1cccc(CCNC(=O)c2csc(CNC(=O)COc3ccc(OC(F)(F)F)cc3)n2)c1 (ALK (baculovirus expressed human ALK kinase domain F1098-K1410) (Homo sapiens))
> 7.30

Give reported pIC50 for NCc1nc(C(=O)NCCc2cccc(Cl)c2)cs1 (ALK (baculovirus expressed human ALK kinase domain F1098-K1410) (Homo sapiens))
< 5.70

Give reported pIC50 for CC(C)C[C@@H](NC(=O)c1csc(CNC(=O)COc2ccc(OC(F)(F)F)cc2)n1)C(N)=O (ALK (baculovirus expressed human ALK kinase domain F1098-K1410) (Homo sapiens))
6.30 to 7.30

Give reported pIC50 for CC(NC(=O)c1csc(CNC(=O)COc2ccc(OC(F)(F)F)cc2)n1)c1ccc(Br)cc1 (centres unmarked) (ALK (baculovirus expressed human ALK kinase domain F1098-K1410) (Homo sapiens))
6.30 to 7.30

Give reported pIC50 for O=C(COc1ccc(OC(F)(F)F)cc1)NCc1nc(C(=O)NCCSCc2ccco2)cs1 (ALK (baculovirus expressed human ALK kinase domain F1098-K1410) (Homo sapiens))
6.30 to 7.30

Give reported pIC50 for O=C(COc1ccc(OC(F)(F)F)cc1)NCc1nc(C(=O)NCc2ccccc2OC(F)(F)F)cs1 (ALK (baculovirus expressed human ALK kinase domain F1098-K1410) (Homo sapiens))
6.30 to 7.30

Give reported pIC50 for O=C(COc1ccc(OC(F)(F)F)cc1)NCc1nc(C(=O)NCCN2CCOCC2)cs1 (ALK (baculovirus expressed human ALK kinase domain F1098-K1410) (Homo sapiens))
6.30 to 7.30

----------
// values below are reported pIC50
biological target: ALK (baculovirus expressed human ALK kinase domain F1098-K1410) (Homo sapiens); construct: human ALK kinase domain F1098-K1410; made in house; test: biochemical; conditions: 1 μM ATP, 4 μM poly-AEKY, 12 nM ALK, 2 hours at ambient temperature; read-out: ALK IC50
pIC50: −log10 of the molar value.

| compound | pIC50 |
| --- | --- |
| CCOc1cc(CCNC(=O)c2coc(CNC(=O)COc3ccc(OC(F)(F)F)cc3)n2)ccc1OC [Entry 250] | 5.70 to 6.30 |
| O=C(COc1ccc(OC(F)(F)F)cc1)NCc1nc(C(=O)N[C@@H]2CCC[C@H]2OCc2ccccc2)cs1 [Entry 218] | 6.30 to 7.30 |
| O=C(COc1ccc(OC(F)(F)F)cc1)NCc1nc(C(=O)NCc2cc(C(F)(F)F)ccc2Cl)cs1 [Entry 97] | 6.30 to 7.30 |
| O=C(COc1ccc(OC(F)(F)F)cc1)NCc1nc(C(=O)NCc2cc(F)ccc2F)cs1 [Entry 61] | 6.30 to 7.30 |
| O=C(COc1ccc(OC(F)(F)F)cc1)NCc1nc(C(=O)NCc2cccc(C(F)(F)F)c2F)cs1 [Entry 158] | 6.30 to 7.30 |
| O=C(COc1ccc(OC(F)(F)F)cc1)NCc1nc(C(=O)NCCc2ccc(Cl)c(Cl)c2)cs1 [Entry 44] | 6.30 to 7.30 |
| CCCCCCN(CCC#N)C(=O)c1csc(CNC(=O)COc2ccc(OC(F)(F)F)cc2)n1 [Entry 238] | 5.70 to 6.30 |
| CCc1ccc(NC(=O)NCc2nc(C(=O)NCCc3cccc(Cl)c3)cs2)cc1 [Entry 8] | > 7.30 |
| COc1cc(CCNC(=O)c2coc(CNC(=O)COc3ccc(OC(F)(F)F)cc3)n2)cc(OC)c1 [Entry 207] | 6.30 to 7.30 |
| O=C(COc1ccc(OC(F)(F)F)cc1)NCc1nc(C(=O)NCCc2c[nH]c3ccccc23)cs1 [Entry 45] | 6.30 to 7.30 |

Give the reported value of pIC50 for this record: O=C(COc1ccc(OC(F)(F)F)cc1)NCc1nc(C(=O)NCCc2ccccc2F)co1 [Entry 143]
6.30 to 7.30

Give the reported value of pIC50 for this record: O=C(COc1ccc(OC(F)(F)F)cc1)NCc1nc(C(=O)NCCc2ccccc2)cs1 [Entry 145]
6.30 to 7.30

Give the reported value of pIC50 for this record: Cc1ccc(NC(=O)NCc2nc(C(=O)NCCc3cccc(Cl)c3)cs2)cc1 [Entry 168]
6.30 to 7.30

Give the reported value of pIC50 for this record: COCCCNC(=O)c1csc(CNC(=O)COc2ccc(OC(F)(F)F)cc2)n1 [Entry 269]
5.70 to 6.30

Give the reported value of pIC50 for this record: CCN1CCCC1CNC(=O)c1csc(CNC(=O)COc2ccc(OC(F)(F)F)cc2)n1 (stereo not drawn) [Entry 275]
5.70 to 6.30

----------
biological target: ALK (baculovirus expressed human ALK kinase domain F1098-K1410) (Homo sapiens); construct: human ALK kinase domain F1098-K1410; made in house; assay: biochemical; conditions: 1 μM ATP, 4 μM poly-AEKY, 12 nM ALK, 2 hours at ambient temperature; read-out: ALK IC50
// values below are reported IC50

Recorded IC50, per entry:
| molecule | IC50 |
| --- | --- |
| C[C@@H]1CN(C(=O)c2csc(CNC(=O)COc3ccc(OC(F)(F)F)cc3)n2)C[C@H](C)O1 | 500 to 2000 nM |
| O=C(COc1ccc(OC(F)(F)F)cc1)NCc1nc(C(=O)NCc2ccc(Cl)c(Cl)c2)co1 | 500 to 2000 nM |
| Cc1ccsc1CNC(=O)c1csc(CNC(=O)COc2ccc(OC(F)(F)F)cc2)n1 | 50 to 500 nM |
| CN1CCCC1CCNC(=O)c1csc(CNC(=O)COc2ccc(OC(F)(F)F)cc2)n1 (stereo not drawn) | 500 to 2000 nM |
| COc1cc(CCNC(=O)c2csc(CNC(=O)COc3ccc(OC(F)(F)F)cc3)n2)cc(OC)c1 | 50 to 500 nM |
| O=C(COc1ccc(OC(F)(F)F)cc1)NCc1nc(C(=O)NCCc2ccncc2)cs1 | 50 to 500 nM |
| O=C(COc1ccc(OC(F)(F)F)cc1)NCc1nc(C(=O)NCCc2cccc(Cl)c2)co1 | 50 to 500 nM |
| CC(C)CCC(C)NC(=O)c1csc(CNC(=O)COc2ccc(OC(F)(F)F)cc2)n1 (stereo not drawn) | 500 to 2000 nM |
| O=C(COc1ccc(OC(F)(F)F)cc1)NCc1nc(C(=O)N[C@@H](Cc2ccccc2)C(=O)N2CCCC2)cs1 | 50 to 500 nM |
| O=C(COc1ccc(OC(F)(F)F)cc1)NCc1nc(C(=O)NC2CCCC2)cs1 | 500 to 2000 nM |

Give the reported value of IC50 for this record: O=C(COc1ccc(OC(F)(F)F)cc1)NCc1nc(C(=O)NC2CCCCCCC2)cs1
50 to 500 nM

Give the reported value of IC50 for this record: CC(C)(C)OC(=O)NC1CCN(C(=O)c2csc(CNC(=O)COc3ccc(OC(F)(F)F)cc3)n2)CC1
500 to 2000 nM

Give the reported value of IC50 for this record: O=C(COc1ccc(OC(F)(F)F)cc1)NCc1nc(C(=O)N2CCCC3CCCCC32)cs1 (stereo not drawn)
500 to 2000 nM

Give the reported value of IC50 for this record: O=C(COc1ccc(OC(F)(F)F)cc1)NCc1nc(C(=O)NCCc2cccc(F)c2)co1
50 to 500 nM

Data origin: patent US7973061B2
